# target entity: T1, Human BCMA (human, UniProt Q02223 1-54, limits assumed)
# T1 construct: Soluble analyte in SPR; construct not described; also called huBCMA; B-cell maturation antigen
# T1 sequence (looked up): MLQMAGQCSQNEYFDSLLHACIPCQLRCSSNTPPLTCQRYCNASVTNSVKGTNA
# experiment description: SPR, IgG immobilised, 37 C
parameter measured: T ½ (min)
Reply numerically in min, unit not repeated.

Completed entries (count: 2):
{"columns": ["binder", "numeric readout"],
 "data": [
  ["L3.PY/L1.FF/H2.DY (antibody, V domains shown, IgG) VH: EVQLLESGGGLVQPGGSLRLSCAASGFTFGSYAMTWVRQAPGKGLEWVSAIDYSGGNTFYADSVKGRFTISRDNSKNTLYLQMNSLRAEDTAVYYCARVSPIASGMDYWGQGTLVTVSS VL: EIVLTQSPGTLSLSPGERATLSCRASQSVSSFFLAWYQQKPGQAPRLLIYGASSRATGIPDRFSGSGSGTDFTLTISRLEPEDFAVYYCQHYPYPPSFTFGQGTKVEIK", 4.27],
  ["L3.PY/H2.YQ (antibody, V domains shown, IgG) VH: EVQLLESGGGLVQPGGSLRLSCAASGFTFGSYAMTWVRQAPGKGLEWVSAISYQGGNTFYADSVKGRFTISRDNSKNTLYLQMNSLRAEDTAVYYCARVSPIASGMDYWGQGTLVTVSS VL: EIVLTQSPGTLSLSPGERATLSCRASQSVSSSYLAWYQQKPGQAPRLLIYGASSRATGIPDRFSGSGSGTDFTLTISRLEPEDFAVYYCQHYPYPPSFTFGQGTKVEIK", 7.41]
]}

Q: Item under review: L3.PY/L3.KF/H2.QL (antibody, V domains shown, IgG) VH: EVQLLESGGGLVQPGGSLRLSCAASGFTFGSYAMTWVRQAPGKGLEWVSAISGSGGNTFYADQLKGRFTISRDNSKNTLYLQMNSLRAEDTAVYYCARVSPIASGMDYWGQGTLVTVSS VL: EIVLTQSPGTLSLSPGERATLSCRASQSVSSSYLAWYQQKPGQAPRLLIYGASSRATGIPDRFSGSGSGTDFTLTISRLEPEDFAVYYCKFYPYPPSFTFGQGTKVEIK . Reported T ½?
Ans: 9.26
